Target: human transferrin receptor (hTfR) (Homo sapiens, UniProt P02786)
Construct: made in house
Sequence (P02786 89-760 limits assumed): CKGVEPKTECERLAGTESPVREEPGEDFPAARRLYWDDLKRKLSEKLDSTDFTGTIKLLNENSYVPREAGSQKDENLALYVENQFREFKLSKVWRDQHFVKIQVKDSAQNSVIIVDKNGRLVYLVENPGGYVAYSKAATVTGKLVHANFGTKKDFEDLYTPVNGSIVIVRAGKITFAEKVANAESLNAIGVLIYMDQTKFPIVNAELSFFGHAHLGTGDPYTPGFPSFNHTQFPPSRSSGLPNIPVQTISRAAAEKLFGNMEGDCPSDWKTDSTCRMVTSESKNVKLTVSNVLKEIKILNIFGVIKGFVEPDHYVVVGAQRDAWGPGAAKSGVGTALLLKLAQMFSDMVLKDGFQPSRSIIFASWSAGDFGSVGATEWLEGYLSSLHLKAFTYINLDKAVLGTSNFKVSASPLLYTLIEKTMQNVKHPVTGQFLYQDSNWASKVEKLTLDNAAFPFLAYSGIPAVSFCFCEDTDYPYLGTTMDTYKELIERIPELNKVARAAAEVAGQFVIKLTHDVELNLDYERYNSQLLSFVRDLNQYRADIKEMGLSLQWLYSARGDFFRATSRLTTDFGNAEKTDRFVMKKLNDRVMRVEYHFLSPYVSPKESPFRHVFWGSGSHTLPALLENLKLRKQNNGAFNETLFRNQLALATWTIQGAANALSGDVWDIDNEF
Assay: Evaluation of molecular interaction between transferrin receptor (hTfR) and peptide using surface plasmon resonance (SPR)
Format: binding
Settings: KD class for binding to hTfR by SPR; peptide with the linker shown in the same line; 'low signal indicates no activity'; read-out: SPR
pKd: −log10 of the molar value.
readout name: pKd

Q: Given the compound `CC[C@H](C)[C@@H]1NC(=O)[C@H](Cc2ccc(OC)cc2)NC(=O)[C@H](Cc2ccc(O)cc2)NC(=O)[C@H](CC(N)=O)NC(=O)[C@H](Cc2c[nH]c3ccccc23)N(C)C(=O)[C@H](C(C)C)NC(=O)[C@H](Cc2ccncc2)N(C)C(=O)[C@H](C(C)C)NC(=O)[C@H](C)NC(=O)CSC[C@@H](C(=O)NCC(=O)N[C@@H](CCCCN=[N+]=[N-])C(N)=O)NC(=O)[C@H](Cc2ccc(O)cc2)N(C)C(=O)[C@H](Cc2ccccc2)NC(=O)[C@@H](CCCNC(=N)N)NC(=O)[C@H](CCCNC(=N)N)NC(=O)[C@H]([C@@H](C)CC)NC1=O` , what is its reported pKd?
A: 7.00 to 9.00

----------
Target: human transferrin receptor (hTfR) (Homo sapiens, UniProt P02786)
Construct: made in house
Assay: Evaluation of molecular interaction between transferrin receptor (hTfR) and peptide using surface plasmon resonance (SPR)
Format: binding
Conditions: surface plasmon resonance, binding to hTfR; KD class symbol; read-out: SPR (KD value)
readout name: Kd

Q: Given the compound `CC[C@H](C)[C@@H]1NC(=O)[C@H](Cc2ccc(OC)cc2)NC(=O)[C@H](Cc2ccc(O)cc2)NC(=O)[C@H](CC(N)=O)NC(=O)[C@H](Cc2c[nH]c3ccccc23)N(C)C(=O)[C@H](C(C)C)NC(=O)[C@H](Cc2cccc(Cl)c2)N(C)C(=O)[C@H](C(C)C)NC(=O)[C@H](C)N(C)C(=O)CSC[C@@H](C(=O)NCCOCCOCCOCCOCCC(N)=O)NC(=O)[C@H](Cc2ccc(O)cc2)N(C)C(=O)[C@H](Cc2ccccc2)NC(=O)[C@@H](C)NC(=O)[C@H](CCCNC(=N)N)NC(=O)[C@H]([C@@H](C)CC)NC1=O` , what is its reported Kd?
A: 1 to 100 nM

----------
Reported pKd values for a set of molecules
Target: human transferrin receptor (hTfR) (Homo sapiens)
Construct: made in house
Assay: Evaluation of molecular interaction between transferrin receptor (hTfR) and peptide using surface plasmon resonance (SPR)
Format: binding
Details: surface plasmon resonance, binding to hTfR; KD class symbol; read-out: SPR (KD value)
pKd: −log10 of the molar value.

molecule="CC[C@H](C)[C@@H]1NC(=O)[C@H](Cc2ccc(OCC(=O)O)cc2)NC(=O)[C@H](Cc2ccc(O)cc2)NC(=O)[C@H](CC(N)=O)NC(=O)[C@H](Cc2cn(CC(=O)O)c3ccccc23)NC(=O)[C@H](C(C)C)NC(=O)[C@H](Cc2cccc(Cl)c2)N(C)C(=O)[C@H](C(C)C)NC(=O)[C@H](C)NC(=O)CSC[C@@H](C(=O)NCCOCCOCCOCCOCCC(N)=O)NC(=O)[C@H](Cc2ccc(O)cc2)N(C)C(=O)[C@H](Cc2ccccc2)NC(=O)[C@H](CCCNC(=N)N)NC(=O)[C@H](CCCNC(=N)N)NC(=O)[C@H]([C@@H](C)CC)NC1=O [compound 44]" result="7.00 to 9.00"

Q: Given the molecule CC[C@H](C)[C@@H]1NC(=O)[C@H](Cc2ccc(O)cc2)NC(=O)[C@H](Cc2ccc(O)cc2)NC(=O)[C@H](CC(N)=O)NC(=O)[C@H](Cc2c[nH]c3ccc(Cl)cc23)NC(=O)[C@H](C(C)C)NC(=O)[C@H](Cc2ccc(F)cc2)N(C)C(=O)[C@H](C(C)C)NC(=O)[C@H](C)NC(=O)CSC[C@@H](C(=O)NCCOCCOCCOCCOCCC(N)=O)NC(=O)[C@H](Cc2ccc(O)cc2)N(C)C(=O)[C@H](Cc2ccccc2)NC(=O)[C@@H](CCCNC(=N)N)NC(=O)[C@H](CCCNC(=N)N)N(C)C(=O)[C@H]([C@@H](C)CC)NC1=O [compound 25] , what is its reported pKd?
A: 6.00 to 7.00

Q: Given the molecule CC[C@H](C)[C@@H]1NC(=O)[C@H](Cc2ccc(O)cc2)NC(=O)[C@H](Cc2ccc(O)cc2)NC(=O)[C@H](CC(N)=O)NC(=O)[C@H](Cc2c[nH]c3ccccc23)N(C)C(=O)[C@H](C(C)C)NC(=O)[C@H](Cc2ccc(F)cc2)N(C)C(=O)[C@H](C(C)C)NC(=O)[C@H](C)NC(=O)CSC[C@@H](C(N)=O)NC(=O)[C@H](Cc2ccc(O)cc2)N(C)C(=O)[C@H](Cc2ccccc2)NC(=O)[C@H](CCCCNC(=O)CCOCCOCCOCCOC)NC(=O)[C@H](CCCNC(=N)N)N(C)C(=O)[C@H]([C@@H](C)CC)NC1=O [compound 7] , what is its reported pKd?
A: 7.00 to 9.00

Q: Given the molecule CC[C@H](C)[C@@H]1NC(=O)[C@H](Cc2ccc(OC)cc2)NC(=O)[C@H](Cc2ccc(O)cc2)NC(=O)[C@H](CC(N)=O)NC(=O)[C@H](Cc2c[nH]c3ccccc23)N(C)C(=O)[C@H](C(C)C)NC(=O)[C@H](Cc2ccc(F)cc2)N(C)C(=O)[C@H](C(C)C)NC(=O)[C@H](C)NC(=O)CSC[C@@H](C(N)=O)NC(=O)[C@H](Cc2ccc(O)cc2)N(C)C(=O)[C@H](Cc2ccccc2)NC(=O)[C@@H](CCCNC(=N)N)NC(=O)[C@H](CCCCNC(=O)CCOCCOCCOCCOC)NC(=O)[C@H]([C@@H](C)CC)NC1=O [compound 6] , what is its reported pKd?
A: 7.00 to 9.00

----------
Reported pKd values for a set of compounds
Target: human transferrin receptor (hTfR) (Homo sapiens, UniProt P02786)
Construct: made in house
Assay: Evaluation of molecular interaction between transferrin receptor (hTfR) and peptide using surface plasmon resonance (SPR)
Type: binding
Conditions: surface plasmon resonance, binding to hTfR; KD class symbol; read-out: SPR (KD value)
pKd: −log10 of the molar value.

Example entries and their recorded answers appear below.
compound="CC[C@H](C)[C@@H]1NC(=O)[C@H](Cc2ccc(OC)cc2)NC(=O)[C@H](Cc2ccc(O)cc2)NC(=O)[C@H](CC(N)=O)NC(=O)[C@H](Cc2c[nH]c3ccccc23)NC(=O)[C@H](C(C)C)NC(=O)[C@H](Cc2ccccc2)N(C)C(=O)[C@H](C(C)C)NC(=O)[C@H](C)NC(=O)CSC[C@@H](C(=O)NCCOCCOCCOCCOCCC(N)=O)NC(=O)[C@H](Cc2ccc(O)cc2)N(C)C(=O)[C@H](Cc2ccccc2)NC(=O)[C@H](CCCNC(=N)N)NC(=O)[C@H](CCCNC(=N)N)N(C)C(=O)[C@H]([C@@H](C)CC)NC1=O [compound 17]" result="7.00 to 9.00"
compound="CC[C@H](C)[C@@H]1NC(=O)[C@H](Cc2ccc(O)cc2)NC(=O)[C@H](Cc2ccc(O)cc2)NC(=O)[C@H](CC(N)=O)NC(=O)[C@H](Cc2c[nH]c3ccc(Cl)cc23)NC(=O)[C@H](C(C)C)NC(=O)[C@H](Cc2ccccc2)N(C)C(=O)[C@H](C(C)C)NC(=O)[C@H](C)NC(=O)CSC[C@@H](C(=O)NCCOCCOCCOCCOCCC(N)=O)NC(=O)[C@H](Cc2ccc(O)cc2)N(C)C(=O)[C@H](Cc2ccccc2)NC(=O)[C@H](CCCNC(=N)N)NC(=O)[C@H](CCCNC(=N)N)NC(=O)[C@H]([C@@H](C)CC)NC1=O [compound 18]" result="> 9.00"
compound="CC[C@H](C)[C@@H]1NC(=O)[C@H](Cc2ccc(OCC(=O)O)cc2)NC(=O)[C@H](Cc2ccc(O)cc2)NC(=O)[C@H](CC(N)=O)NC(=O)[C@H](Cc2c[nH]c3ncccc23)NC(=O)[C@H](C(C)C)NC(=O)[C@H](Cc2cccc(Cl)c2)N(C)C(=O)[C@H](C(C)C)NC(=O)[C@H](C)NC(=O)CSC[C@@H](C(=O)NCCOCCOCCOCCOCCC(N)=O)NC(=O)[C@H](Cc2ccc(O)cc2)N(C)C(=O)[C@H](Cc2ccccc2)NC(=O)[C@H](CCCNC(=N)N)NC(=O)[C@H](CCC(=O)NCCOCCOCCOCCOC)NC(=O)[C@H]([C@@H](C)CC)NC1=O [compound 133]" result="7.00 to 9.00"
compound="CC[C@H](C)[C@@H]1NC(=O)[C@H](Cc2ccc(OCC(=O)O)cc2)NC(=O)[C@H](Cc2ccc(O)cc2)NC(=O)[C@H](CC(N)=O)NC(=O)[C@H](Cc2cn(CC(=O)O)c3ccccc23)NC(=O)[C@H](C(C)C)NC(=O)[C@H](Cc2cccc(Cl)c2)N(C)C(=O)[C@H](C(C)C)NC(=O)[C@H](C)NC(=O)CSC[C@@H](C(=O)NCCOCCOCCOCCOCCC(N)=O)NC(=O)[C@H](Cc2ccc(O)cc2)N(C)C(=O)[C@H](Cc2ccccc2)NC(=O)[C@H](CCCNC(=N)N)NC(=O)[C@H](CCC(N)=O)NC(=O)[C@H]([C@@H](C)CC)NC1=O [compound 104]" result="7.00 to 9.00"
compound="CC[C@H](C)[C@@H]1NC(=O)[C@H](Cc2ccc(O)cc2)NC(=O)[C@H](Cc2ccc(O)cc2)NC(=O)[C@H](CC(=O)N(C)C)NC(=O)[C@H](Cc2c[nH]c3ccccc23)NC(=O)[C@H](C(C)C)NC(=O)[C@H](Cc2ccccc2)N(C)C(=O)[C@H](C(C)C)NC(=O)[C@H](C)NC(=O)CSC[C@@H](C(N)=O)NC(=O)[C@H](Cc2ccc(O)cc2)N(C)C(=O)[C@H](Cc2ccc(O)cc2)NC(=O)[C@H](CCCNC(=N)N)NC(=O)[C@H](CCCNC(=N)N)NC(=O)[C@H]([C@@H](C)CC)NC1=O [compound 9]" result="6.00 to 7.00"
compound="CC[C@H](C)[C@@H]1NC(=O)[C@H](Cc2ccc(OCC(=O)O)cc2)NC(=O)[C@H](Cc2ccc(O)cc2)NC(=O)[C@H](CC(N)=O)NC(=O)[C@H](Cc2cn(CC(=O)O)c3ccccc23)NC(=O)[C@H](C(C)C)NC(=O)[C@H](Cc2cccc(Cl)c2)N(C)C(=O)[C@H](C(C)C)NC(=O)[C@H](C)NC(=O)CSC[C@@H](C(=O)NCCOCCOCCOCCOCCC(N)=O)NC(=O)[C@H](Cc2ccc(O)cc2)N(C)C(=O)[C@H](Cc2cccc(C(=O)O)c2)NC(=O)[C@H](CCCNC(=N)N)NC(=O)[C@H](CCCNC(=N)N)NC(=O)[C@H]([C@@H](C)CC)NC1=O [compound 75]" result="7.00 to 9.00"

Q: Given the compound CC[C@H](C)[C@@H]1NC(=O)[C@H](Cc2ccc(OCC(=O)O)cc2)NC(=O)[C@H](Cc2ccc(O)cc2)NC(=O)[C@H](CC(N)=O)NC(=O)[C@H](Cc2cn(CC(=O)O)c3ccccc23)NC(=O)[C@H](C(C)C)NC(=O)[C@H](Cc2cccc(Cl)c2)N(C)C(=O)[C@H](C(C)C)NC(=O)[C@H](C)NC(=O)CSC[C@@H](C(=O)NCCOCCOCCOCCOCCC(N)=O)NC(=O)[C@H](Cc2ccc(O)cc2)N(C)C(=O)[C@H](Cc2ccncc2)NC(=O)[C@H](CCCCN2CCOCC2)NC(=O)[C@H](CCC(N)=O)NC(=O)[C@H]([C@@H](C)CC)NC1=O [compound 135] , what is its reported pKd?
A: 7.00 to 9.00

Q: Given the compound CC[C@H](C)[C@@H]1NC(=O)[C@H](Cc2ccc(OC)cc2)NC(=O)[C@H](Cc2ccc(N)nc2)NC(=O)[C@H](CC(N)=O)NC(=O)[C@H](Cc2cn(CC(=O)O)c3ccccc23)NC(=O)[C@H](C(C)C)NC(=O)[C@H](Cc2cccc(Cl)c2)N(C)C(=O)[C@H](C(C)C)NC(=O)[C@H](C)NC(=O)CSC[C@@H](C(=O)NCCOCCOCCOCCOCCC(N)=O)NC(=O)[C@H](Cc2ccc(O)cc2)N(C)C(=O)[C@H](Cc2ccncc2)NC(=O)[C@H](CCCNC(=N)N)NC(=O)[C@H](CCCNC(=N)N)NC(=O)[C@H]([C@@H](C)CC)NC1=O [compound 50] , what is its reported pKd?
A: 7.00 to 9.00

Provenance of the data: patent US20260116920A1
